# MEASUREMENT_PROTOCOL: gradient 5% acetonitrile 3 min, to 50% in 2 min, to 85% in 15 min, held 3 min, 100 µL/min
# STATED_CONDITIONS: column: Zorbax Extend-C18 2.1 x 50 mm; eluents: water / acetonitrile, 0.1% formic acid
RP-LC retention time by entry:
// note: answer is a bare numeric in s

{"MOLECULE": "COC(=O)c1ncn2c1C(=O)N(Cc1ccc(Cl)cc1)C(C)(C(=O)NC1CCCCC1)C2 (stereo not given)", "REPORTED_RESULT": 798}
{"MOLECULE": "c1cc2c3c(cccc3c1)NC1(CCC3(CC1)Nc1cccc4cccc(c14)N3)N2", "REPORTED_RESULT": 1200}
{"MOLECULE": "NC(=O)c1nnn(Cc2ccccc2F)c1N", "REPORTED_RESULT": 596}

Q) Form field: reported RP-LC retention time of COc1cc2c(Oc3ccc4[nH]c(C)cc4c3F)ncnc2cc1OCCCN1CCCC1
A) 709

Q) Consider next the molecule CC(C)Oc1cccnc1N(C)C1CCN(Cc2ccccc2)CC1 in the same way.
A) 627

---

# MEASUREMENT_PROTOCOL: gradient 5% acetonitrile 3 min, to 50% in 2 min, to 85% in 15 min, held 3 min, 100 µL/min
# STATED_CONDITIONS: column: Zorbax Extend-C18 2.1 x 50 mm; eluents: water / acetonitrile, 0.1% formic acid
MEASUREMENT_NAME: RP-LC retention time (s)
// note: answer is a bare numeric in s

Previously resolved entries follow.
{"MOLECULE": "CC1=C(c2ccc(C)c(C)c2)S(=O)(=O)N=C1N1CCC(NC(=O)C2CCOC2)CC1 (stereo not given)", "QUANTITY_UNIT": "s", "REPORTED_RESULT": 747}
{"MOLECULE": "CC(C)c1cc(C(=O)NCc2ccco2)nc2cc(-c3ccccn3)nn12", "QUANTITY_UNIT": "s", "REPORTED_RESULT": 629}
{"MOLECULE": "O=C(Cn1nc2nc(N3CCCC3)ccn2c1=O)NCCc1ccccc1", "QUANTITY_UNIT": "s", "REPORTED_RESULT": 947}
{"MOLECULE": "O=C1NC2(CCN(C(=O)NCCc3ccccc3)CC2)Nc2c(Cl)cccc21", "QUANTITY_UNIT": "s", "REPORTED_RESULT": 773}

Q) Form field: reported RP-LC retention time of O=C(Cc1cc(-c2cc3ccccc3o2)on1)NCCC1=CCCCC1
A) 1060

---

RP-LC retention time by entry:
# MEASUREMENT_PROTOCOL: gradient 5% acetonitrile 3 min, to 50% in 2 min, to 85% in 15 min, held 3 min, 100 µL/min
# STATED_CONDITIONS: column: Zorbax Extend-C18 2.1 x 50 mm; eluents: water / acetonitrile, 0.1% formic acid
// note: answer is a bare numeric in s

{"COMPOUND": "COc1ccc(-c2n[nH]c3c2C(c2cccc(O)c2)N(C)C3=O)cc1 (centres undefined)", "QUANTITY_UNIT": "s", "REPORTED_RESULT": 686}
{"COMPOUND": "CCc1ccccc1N1C(=O)CN(S(=O)(=O)CC)CC1(C)C(=O)NC1CCCC1 (centres undefined)", "QUANTITY_UNIT": "s", "REPORTED_RESULT": 826}
{"COMPOUND": "COc1ccc(NC(=O)N2CCC(c3cc(N)on3)CC2)cc1", "QUANTITY_UNIT": "s", "REPORTED_RESULT": 640}

Q) Form field: reported RP-LC retention time of Cc1cc(C)n(CCC(=O)N2CC(Oc3ccc(-c4nc(-c5ccccc5)no4)cc3)C2)n1
A) 1020

Q) Consider next the compound CC(C)(C)c1ccc(S(=O)(=O)N2CCCC2c2nc(-c3ccc(F)cc3)no2)cc1 (centres undefined) in the same way.
A) 1310

Q) Consider next the compound COc1ccc(-c2nc(-c3ccc4nnn(C(C)C)c4c3)no2)cc1 in the same way.
A) 1140

Q) Consider next the compound CCn1cc(S(=O)(=O)N2CCC3(CC2)CN(Cc2ccc(OC)cc2)C3=O)cn1 in the same way.
A) 729

Q) Consider next the compound O=C(Cn1nc2n(c1=O)CCCC2)Nc1cccc(C(F)(F)F)c1 in the same way.
A) 705

Q) Consider next the compound CCCNC(=O)c1ccc2ncnc(N3CCCC3)c2c1 in the same way.
A) 576

Q) Consider next the compound O=C(CN1C(=O)CCCc2cc(S(=O)(=O)N3CCCCCC3)ccc21)NC1CCCCC1 in the same way.
A) 987

Q) Consider next the compound CCOC(=O)CCNC(=O)N1CCc2cc(-c3ccc(C(=O)N4CCOCC4)cc3)ccc21 in the same way.
A) 724

Q) Consider next the compound Cc1nc(-c2cccc(F)c2)sc1CCNC(=O)Nc1ccc2c(c1)OCO2 in the same way.
A) 817

Q) Consider next the compound COCCOCC(=O)N1CCC(c2noc(C3CC3)n2)C1 (centres undefined) in the same way.
A) 619

Q) Consider next the compound Cc1ccc(-c2noc(CN3N=NC4C(=O)N(c5ccccc5)C(=O)C43)n2)cc1C (centres undefined) in the same way.
A) 1020

---

# MEASUREMENT_PROTOCOL: gradient 5% acetonitrile 3 min, to 50% in 2 min, to 85% in 15 min, held 3 min, 100 µL/min
# STATED_CONDITIONS: column: Zorbax Extend-C18 2.1 x 50 mm; eluents: water / acetonitrile, 0.1% formic acid
Using RP-LC retention time as the sorting value, the categories are label 0 (below 700 s), label 1 (700 s to below 900 s), label 2 (900 s or more)

{"MOLECULE": "COc1ccc(-c2nn3c(-c4ccccc4F)nnc3s2)cc1", "ASSIGNED_CLASS": "label 2"}
{"MOLECULE": "CCc1ccc(-c2cc3c(=O)n(Cc4noc(CN5CCCCC5C)n4)ccn3n2)cc1 (centres undefined)", "ASSIGNED_CLASS": "label 1"}
{"MOLECULE": "Cc1ccc(-c2ccc(N3CCN(c4ccccn4)CC3)nn2)cc1S(=O)(=O)N1CCOCC1", "ASSIGNED_CLASS": "label 0"}
{"MOLECULE": "CCCOc1nc2ccccc2nc1N1CCCC(C(=O)Nc2cc(C)cc(C)c2)C1 (centres undefined)", "ASSIGNED_CLASS": "label 2"}
{"MOLECULE": "O=C(C1CCN(c2ncnc3c2sc2ncccc23)CC1)N1CCN(c2ccccn2)CC1", "ASSIGNED_CLASS": "label 0"}

Read the next record carefully.
Q) Class (by measured RP-LC retention time) for CCOC(=O)C1CCN(S(=O)(=O)c2ccc(Cl)c(-c3nnc(-c4ccccc4)o3)c2)CC1
A) label 2

---

RP-LC retention time by entry:
# MEASUREMENT_PROTOCOL: gradient 5% acetonitrile 3 min, to 50% in 2 min, to 85% in 15 min, held 3 min, 100 µL/min
# STATED_CONDITIONS: column: Zorbax Extend-C18 2.1 x 50 mm; eluents: water / acetonitrile, 0.1% formic acid
// note: answer is a bare numeric in s

{"RECORD_SMILES": "COc1cc(-c2nc3ncccn3c2Nc2cccc(C(F)(F)F)c2)ccc1O", "QUANTITY_UNIT": "s", "REPORTED_RESULT": 700}
{"RECORD_SMILES": "Cn1nc(C(=O)N2CCCCC2)c2c1CCN(C(=O)CCC(=O)NCCC1=CCCCC1)C2", "QUANTITY_UNIT": "s", "REPORTED_RESULT": 744}
{"RECORD_SMILES": "COc1cc(SC)ccc1C(=O)NCCc1c[nH]c2ccc(C)cc12", "QUANTITY_UNIT": "s", "REPORTED_RESULT": 953}
{"RECORD_SMILES": "O=C(Cn1cnc2nc3c(cc2c1=O)CCCC3)Nc1ccccc1F", "QUANTITY_UNIT": "s", "REPORTED_RESULT": 703}

Q) Form field: reported RP-LC retention time of C=CCn1c(C(=O)NCCc2c[nH]c3ccccc23)cc2cc(S(=O)(=O)N(C)C)ccc21
A) 981

---

# MEASUREMENT_PROTOCOL: gradient 5% acetonitrile 3 min, to 50% in 2 min, to 85% in 15 min, held 3 min, 100 µL/min
# STATED_CONDITIONS: column: Zorbax Extend-C18 2.1 x 50 mm; eluents: water / acetonitrile, 0.1% formic acid
RP-LC retention time by entry:
// note: answer is a bare numeric in s

Previously resolved entries follow.
{"COMPOUND": "Cn1cc2c(N3CCSCC3)nc(C(=O)N3CCN(C4CCCC4)CC3)nc2n1", "RP-LC retention time, s": 579}
{"COMPOUND": "CCc1nc(-c2ccc(-c3noc(CNC(=O)Cc4ccc(Cl)cc4)n3)cc2)cs1", "RP-LC retention time, s": 1080}
{"COMPOUND": "COc1ccc(-c2csc3ncnc(SCc4c(C)noc4C)c23)cc1", "RP-LC retention time, s": 1030}
{"COMPOUND": "COc1cccc(CCNC(=O)CN2C(=O)CSc3cccn3-c3ccccc32)c1", "RP-LC retention time, s": 900}
{"COMPOUND": "Cc1noc([C@@H]2CN(Cc3cc(F)cc(F)c3)C[C@H]2CO)n1", "RP-LC retention time, s": 546}
{"COMPOUND": "Clc1ccc(CNc2nnc(N3CCOCC3)c3ccccc23)cc1", "RP-LC retention time, s": 693}

Q) Form field: reported RP-LC retention time of CSc1ccc(Nc2ncccc2S(=O)(=O)Nc2ccc(F)cc2)cc1
A) 1100

Q) Consider next the compound Cc1ccc(C(C)NC(=O)c2cccc(C3CCCN(C(=O)NC(C)C)C3)c2)c(C)c1 (stereo not given) in the same way.
A) 969

Q) Consider next the compound Cc1ccc(NC(=O)c2sc(C)nc2C)c(Cl)c1 in the same way.
A) 907

Q) Consider next the compound CCc1nc(-c2csc(S(=O)(=O)N3CCC(C(=O)Nc4ccc(C)c(Cl)c4)CC3)c2)no1 in the same way.
A) 994

This collection of values is drawn from the METLIN SMRT retention time set (Domingo-Almenara et al. 2019).
